Assay: Pharmacokinetic detection in rats after intravenous injection and oral administration
Format: in vivo, Sprague-Dawley (SD) rats
Settings: in vivo; rat, oral administration, 10 mg/kg

{"columns": ["compound", "unit symbol", "half-life"],
 "data": [
  ["NC(=O)c1nn(-c2ccc(N3CCN(CC4CCN(c5ccc(NC6CCC(=O)NC6=O)cc5F)CC4)CC3)cc2)cc1NC(=O)c1cccc(C(F)(F)F)n1 (centres unmarked) [Compound A195]", "h", 15],
  ["NC(=O)c1nn(-c2ccc(N3CCN(CCN4CCN(c5ccc6c(c5)C(=O)N(C5CCC(=O)NC5=O)C6=O)CC4)CC3)cc2)cc1NC(=O)c1cccc(C(F)(F)F)n1 (centres unmarked) [Compound A173]", "h", 21],
  ["Cn1c(=O)n(C2CCC(=O)NC2=O)c2cccc(C#CCOC3CCN(CC4CCC(n5cc(NC(=O)c6cnn7ccc(N8CC9CC8CO9)nc67)c(C(F)F)n5)CC4)CC3)c21 (centres unmarked) [Control compound 1, reference compound]", "h", 4],
  ["NC(=O)c1nn(-c2ccc(N3CCN(CC4CCN(c5ccc6c(c5)CN(C5CCC(=O)NC5=O)C6=O)CC4)CC3)cc2)cc1NC(=O)c1cccc(C(F)(F)F)n1 (centres unmarked) [Compound A169]", "h", 5],
  ["Cn1c(=O)n(C2CCC(=O)NC2=O)c2cccc(N3CCC(CN4CCN(c5ccc(-n6cc(NC(=O)c7cccc(C(F)(F)F)n7)c(C(N)=O)n6)cc5)CC4)CC3)c21 (centres unmarked) [Compound A178]", "h", 15]
]}

----------
Target: IRAK4 (Homo sapiens)
Sequence (Q9NWZ3 1-460): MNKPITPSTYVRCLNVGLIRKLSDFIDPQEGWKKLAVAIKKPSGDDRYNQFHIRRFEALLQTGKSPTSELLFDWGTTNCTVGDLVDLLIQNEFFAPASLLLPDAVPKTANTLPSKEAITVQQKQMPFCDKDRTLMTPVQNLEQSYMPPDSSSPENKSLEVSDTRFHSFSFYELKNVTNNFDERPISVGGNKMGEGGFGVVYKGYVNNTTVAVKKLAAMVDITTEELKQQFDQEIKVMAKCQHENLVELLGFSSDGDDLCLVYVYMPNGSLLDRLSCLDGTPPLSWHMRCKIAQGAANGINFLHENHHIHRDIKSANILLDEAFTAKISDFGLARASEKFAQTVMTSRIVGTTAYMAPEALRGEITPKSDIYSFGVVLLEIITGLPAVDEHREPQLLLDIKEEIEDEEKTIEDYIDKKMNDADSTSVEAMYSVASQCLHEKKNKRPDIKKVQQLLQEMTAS
Assay: Assay for inhibitory effect of compound on IRAK4 kinase activity (KinEASE-STK S1 HTRF kit)
Format: biochemical
Settings: kinase 8 nM, ATP 80 µM, 37°C 90 minutes; read-out: IRAK4 HTRF IC50

{"columns": ["molecule", "IC50"],
 "data": [
  ["NC(=O)c1oc(-c2ccccc2)nc1NC(=O)c1cccc(C(F)(F)F)n1 [Compound A57]", "> 1000 nM"],
  ["NS(=O)(=O)c1nn(-c2ccccc2)cc1NC(=O)c1cccc(-c2cn[nH]c2)n1 [Compound A93]", "< 100 nM"],
  ["NC(=O)c1cc(-c2ccccc2)oc1NC(=O)c1cccc(C(F)(F)F)n1 [Compound A53]", "> 1000 nM"],
  ["O=C(Nc1cn(C2CCNCC2)nc1C(=O)NC1CC1)c1cccc(-c2ccn[nH]2)n1 [Compound A256]", "< 100 nM"],
  ["CC(=O)N(C)Cc1ccc(-n2cc(NC(=O)c3cccc(C(F)(F)F)n3)c(C(N)=O)n2)cc1 [Compound A24]", "< 100 nM"],
  ["O=C(NC1CC1)c1nn(C2CCC2)cc1NC(=O)c1cnn2ccc(-c3cn[nH]c3)nc12 [Compound A287]", "100 to 1000 nM"],
  ["CC(C)(O)c1nn(C2CCC2)cc1NC(=O)c1cnn2ccc(-c3ccn[nH]3)nc12 [Compound A290]", "100 to 1000 nM"]
]}

----------
Known Dmax of a selection of molecules
Target: IRAK4 (Homo sapiens, UniProt Q9NWZ3)
Assay: Degradation of IRAK4 in THP1 cells, Western blot
Format: cell-based
Design: Degradation of IRAK4 in THP1 by compound; host or cells: THP-1
Conditions: maximum degradation rate, THP-1 cells, 24 hours of incubation; read-out: Dmax
Structures can show the parent of a compound that is named as a salt.

{"columns": ["molecule", "Dmax"],
 "data": [
  ["NC(=O)c1nn(-c2ccc(N3CCN(C4CCC5(CC4)CN(c4ccc(N6CCC(=O)NC6=O)cc4)C5)CC3)cc2)cc1NC(=O)c1cccc(C(F)(F)F)n1", "> 60%"],
  ["NC(=O)c1nn([C@H]2CC[C@H](N3CCN(CC4CN(c5ccc(N6CCC(=O)NC6=O)cc5)C4)CC3)CC2)cc1NC(=O)c1cccc(C(F)(F)F)n1", "40 to 60%"],
  ["Cn1c(=O)n(C2CCC(=O)NC2=O)c2ccc(N3CCC(CN4CCN(c5ccc(-n6cc(NC(=O)c7cccc(C(F)(F)F)n7)c(C(N)=O)n6)cc5)CC4)C(F)(F)C3)cc21 (stereo not shown)", "> 60%"],
  ["Cn1c(=O)n(C2CCC(=O)NC2=O)c2cccc(N3CCC(CN4CCN(c5ccc(-n6cc(NC(=O)c7cccc(C(F)(F)F)n7)c(C(N)=O)n6)cc5)CC4)C(F)(F)C3)c21 (stereo not shown)", "> 60%"],
  ["Cn1c(=O)n(C2CCC(=O)NC2=O)c2cccc(N3CCC(CN4CCN(C5CCC(n6cc(NC(=O)c7cccc(C(F)(F)F)n7)c(C(N)=O)n6)CC5)CC4)CC3)c21 (stereo not shown)", "> 60%"],
  ["Cn1c(=O)n(C2CCC(=O)NC2=O)c2cccc(C#CCOC3CN(Cc4ccc(-n5cc(NC(=O)c6cccc(-c7ccn[nH]7)n6)c(S(N)(=O)=O)n5)cc4)C3)c21 (stereo not shown)", "40 to 60%"],
  ["Cn1c(=O)n(C2CCC(=O)NC2=O)c2cccc(N3CCC4(CCN(CCNC(=O)c5ccc(-n6cc(NC(=O)c7cccc(-c8ccn[nH]8)n7)c(S(N)(=O)=O)n6)cc5)C4)C3)c21 (stereo not shown) [Compound A341, formate]", "> 60%"]
]}
